Target: T1, Cynomolgus monkey glycophorin A on Cynomolgus monkey red blood cells (Cynomolgus monkey)
T1 construct: whole, on cells; also called Cyno RBC; Cyno GPA
Assay: FACS, RBC Cy02
Can you tell me fluorescence intensity for the items I'm about to list?
The answer should be a number; do not append a unit.

Task: Write down fluorescence intensity measured for item Hu6C12-15 (antibody, V domains shown, IgG format; VH.1f + Vk.1a) VH: EVQLVQSGAEVKKPGASVKVSCKASGYTFTTYTIHWVRQAPGQGLEWMGYINPSSDYTRYNPKFKDRVTLTTDTSTSTAYMELRSLRSDDTAVYYCQTGTRDYWGQGTTVTVSS VL: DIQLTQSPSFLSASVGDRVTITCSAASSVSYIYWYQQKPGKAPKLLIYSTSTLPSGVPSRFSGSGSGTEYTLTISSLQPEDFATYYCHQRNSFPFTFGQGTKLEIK
Output: 1070

Task: Write down fluorescence intensity measured for item Hu6C12-14 (antibody, V domains shown, IgG format; VH.1e + Vk.1a) VH: EVQLVQSGAEVKKPGASVKVSCKASGYTFTTYTIHWVRQAPGQGLEWMGYINPSSDYTRYNPKFKDRVTLTTDTSTSTAYMELRSLRSDDTAVYYCATGTRDYWGQGTTVTVSS VL: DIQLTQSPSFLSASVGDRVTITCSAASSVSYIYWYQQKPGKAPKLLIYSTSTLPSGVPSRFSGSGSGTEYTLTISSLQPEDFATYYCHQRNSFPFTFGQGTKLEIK
Output: 1080

Task: Write down fluorescence intensity measured for item Hu6C12-3 (antibody, V domains shown, IgG format; VH.1c + Vk.1) VH: EVQLVQSGAEVKKPGASVKVSCKASGYTFTTYTIHWVRQAPGQGLEWMGYINPSSDYTRYNPKFKDRVTMTTDTSTSTAYMELRSLRSDDTAVYYCQTGTRDYWGQGTTVTVSS VL: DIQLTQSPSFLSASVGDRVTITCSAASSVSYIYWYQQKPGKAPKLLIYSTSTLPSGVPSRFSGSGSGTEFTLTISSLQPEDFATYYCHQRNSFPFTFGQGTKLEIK
Output: 1200

Task: Write down fluorescence intensity measured for item Hu6C12-23 (antibody, V domains shown, IgG format; VH.1f + Vk.1b) VH: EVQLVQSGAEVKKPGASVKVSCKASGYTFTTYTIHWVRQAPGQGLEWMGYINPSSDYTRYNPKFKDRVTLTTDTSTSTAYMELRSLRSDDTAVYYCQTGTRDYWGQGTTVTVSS VL: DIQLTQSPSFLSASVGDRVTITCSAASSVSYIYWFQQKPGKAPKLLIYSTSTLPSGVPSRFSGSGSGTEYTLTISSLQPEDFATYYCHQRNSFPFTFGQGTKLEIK
Output: 1320

Task: Write down fluorescence intensity measured for item Hu6C12-18 (antibody, V domains shown, IgG format; VH.1a + Vk.1b) VH: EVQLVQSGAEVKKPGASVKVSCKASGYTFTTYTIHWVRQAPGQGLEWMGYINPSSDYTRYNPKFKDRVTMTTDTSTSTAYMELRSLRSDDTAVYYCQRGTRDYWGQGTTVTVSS VL: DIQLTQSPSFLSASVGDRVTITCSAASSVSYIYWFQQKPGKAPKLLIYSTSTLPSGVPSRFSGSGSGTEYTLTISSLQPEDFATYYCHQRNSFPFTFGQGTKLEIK
Output: 876

Task: Write down fluorescence intensity measured for item Hu6C12-12 (antibody, V domains shown, IgG format; VH.1c + Vk.1a) VH: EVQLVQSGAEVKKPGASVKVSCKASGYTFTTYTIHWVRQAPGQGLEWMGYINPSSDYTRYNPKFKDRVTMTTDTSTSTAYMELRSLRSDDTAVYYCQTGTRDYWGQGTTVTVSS VL: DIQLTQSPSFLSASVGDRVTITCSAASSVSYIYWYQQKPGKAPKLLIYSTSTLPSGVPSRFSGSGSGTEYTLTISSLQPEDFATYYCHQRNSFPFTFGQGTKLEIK
Output: 1030

Task: Write down fluorescence intensity measured for item Hu6C12-5 (antibody, V domains shown, IgG format; VH.1e + Vk.1) VH: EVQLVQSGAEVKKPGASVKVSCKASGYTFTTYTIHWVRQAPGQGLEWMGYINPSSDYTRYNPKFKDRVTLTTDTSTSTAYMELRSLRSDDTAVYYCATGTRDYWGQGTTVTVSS VL: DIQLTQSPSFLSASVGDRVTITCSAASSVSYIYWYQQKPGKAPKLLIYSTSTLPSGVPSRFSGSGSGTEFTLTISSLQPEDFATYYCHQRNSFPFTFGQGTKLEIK
Output: 1140

Task: Write down fluorescence intensity measured for item Hu6C12-21 (antibody, V domains shown, IgG format; VH.1d + Vk.1b) VH: EVQLVQSGAEVKKPGASVKVSCKASGYTFTTYTIHWVRQAPGQGLEWMGYINPSSDYTRYNPKFKDRVTLTTDTSTSTAYMELRSLRSDDTAVYYCQRGTRDYWGQGTTVTVSS VL: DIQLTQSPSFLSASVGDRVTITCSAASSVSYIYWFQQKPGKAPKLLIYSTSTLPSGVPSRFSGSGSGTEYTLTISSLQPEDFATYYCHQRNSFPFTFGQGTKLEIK
Output: 1120

Task: Write down fluorescence intensity measured for item Hu6C12-17 (antibody, V domains shown, IgG format; VH.1 + Vk.1b) VH: EVQLVQSGAEVKKPGASVKVSCKASGYTFTTYTIHWVRQAPGQGLEWMGYINPSSDYTRYNPKFKDRVTMTTDTSTSTAYMELRSLRSDDTAVYYCARGTRDYWGQGTTVTVSS VL: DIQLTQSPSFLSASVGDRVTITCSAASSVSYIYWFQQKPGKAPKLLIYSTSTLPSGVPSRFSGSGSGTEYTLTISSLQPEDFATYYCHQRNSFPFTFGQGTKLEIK
Output: 127

Task: Write down fluorescence intensity measured for item Hu6C12-16 (antibody, V domains shown, IgG format; VH.1g + Vk.1a) VH: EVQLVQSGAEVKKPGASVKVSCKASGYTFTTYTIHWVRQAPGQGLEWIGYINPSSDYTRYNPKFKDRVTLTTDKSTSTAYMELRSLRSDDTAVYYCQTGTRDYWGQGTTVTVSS VL: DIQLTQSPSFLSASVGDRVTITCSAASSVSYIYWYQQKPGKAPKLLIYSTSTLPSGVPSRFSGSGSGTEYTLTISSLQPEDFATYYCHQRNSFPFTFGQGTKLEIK
Output: 1360
